Ref: ChEMBL document CHEMBL1129782

The following compounds are shown together with reported inhibition values.
Target: Polyunsaturated fatty acid 5-lipoxygenase (Rattus norvegicus)
Test: Ex vivo inhibitory activity at an peroral dose of 10 mg/Kg against LTB4 biosynthesis in rat blood, after pretreatment period of 6 hr
Type: functional
A number alone suffices; assume %.

Examples with their reported inhibition follow.
NC(=O)N(O)Cc1cccc(OCCc2csc(-c3ccc(C(F)(F)F)cc3)n2)c1; 0
Cc1oc(-c2ccc(SC(F)(F)F)cc2)nc1CCOc1ccc(CN(O)C(N)=O)cc1; 0
NC(=O)N(O)Cc1ccc(OCc2csc(-c3ccc(Cl)cc3)n2)cc1; 0
NC(=O)N(O)Cc1cccc(OCc2csc(-c3ccc(Cl)cc3)n2)c1; 63
Cc1oc(-c2cccc(C(F)(F)F)c2)nc1COc1cccc(CN(O)C(N)=O)c1; 0

Pending compound:
Challenge: Which measured inhibition value corresponds to NC(=O)N(O)Cc1ccc(OCc2coc(-c3ccc(C(F)(F)F)cc3)n2)cc1 ?
Response given: 68

----------
Test system: Rattus norvegicus
Experiment: Ex vivo inhibitory activity at an peroral dose of 25 mg/Kg against LTB4 biosynthesis in rat blood, after pretreatment period of 3h
Assay type: functional
Settings: po
A collection of compounds and their measured inhibition in vivo at 25 mg/kg
Provide the reading as a plain figure in %.

Previously resolved entries follow.
Cc1oc(-c2ccccc2)nc1COc1cccc(CN(O)C(N)=O)c1; 78
Cc1oc(-c2ccccc2)nc1CCOc1ccc(CN(O)C(N)=O)cc1; 79
Cc1oc(-c2ccccc2)nc1CCOc1ccc(C(C)N(O)C(N)=O)cc1 (centres undefined); 57

Challenge: // query inhibition in vivo at 25 mg/kg value for entry COc1ccc(-c2nc(CCOc3ccc(CN(O)C(N)=O)cc3)c(C)o2)cc1
Response given: 32

----------
Molecular target: UniProt:P12527
Sequence (P12527 whole entry): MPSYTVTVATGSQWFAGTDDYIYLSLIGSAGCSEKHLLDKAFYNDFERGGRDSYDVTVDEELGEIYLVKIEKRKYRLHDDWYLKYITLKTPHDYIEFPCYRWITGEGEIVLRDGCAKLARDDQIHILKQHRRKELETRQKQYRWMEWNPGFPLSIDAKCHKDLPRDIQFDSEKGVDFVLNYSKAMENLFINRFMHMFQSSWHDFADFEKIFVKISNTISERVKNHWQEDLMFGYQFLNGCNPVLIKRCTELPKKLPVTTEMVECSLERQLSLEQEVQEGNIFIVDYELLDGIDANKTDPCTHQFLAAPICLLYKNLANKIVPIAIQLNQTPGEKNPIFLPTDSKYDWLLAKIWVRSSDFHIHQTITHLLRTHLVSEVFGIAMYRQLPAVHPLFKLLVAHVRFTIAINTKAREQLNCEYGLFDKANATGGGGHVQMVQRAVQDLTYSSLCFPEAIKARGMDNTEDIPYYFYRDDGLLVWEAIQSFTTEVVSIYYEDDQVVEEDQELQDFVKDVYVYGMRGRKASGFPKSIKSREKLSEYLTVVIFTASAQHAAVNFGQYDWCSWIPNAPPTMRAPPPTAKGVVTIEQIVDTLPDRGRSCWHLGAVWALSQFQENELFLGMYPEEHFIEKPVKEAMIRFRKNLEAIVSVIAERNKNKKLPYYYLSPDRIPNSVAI
Test: Ex vivo inhibitory activity at an peroral dose of 10 mg/Kg against LTB4 biosynthesis in rat blood, after pretreatment period of 3h
Type: functional
Threshold check on inhibition: at or above 70% gives rule met, strictly below gives rule not met.

Solved entries (count: 5):
Cc1oc(-c2cccc(F)c2)nc1CCOc1ccc(CN(O)C(N)=O)cc1; rule met
Cc1oc(-c2cccs2)nc1CCOc1ccc(CN(O)C(N)=O)cc1; rule not met
Cc1oc(-c2ccco2)nc1CCOc1ccc(CN(O)C(N)=O)cc1; rule not met
Cc1oc(-c2ccc(C(F)(F)F)cc2)nc1CCOc1ccc(CN(O)C(N)=O)cc1; rule not met
Cc1oc(-c2ccccc2)nc1COc1ccc(CN(O)C(N)=O)cc1F; rule not met

Challenge: Could you tell me if the measured inhibition of Cc1oc(-c2ccccc2)nc1CCOc1ccc(CN(O)C(N)=O)cc1F reaches 70% or more?
Response given: rule not met

Challenge: Check Cc1oc(-c2ccccc2)nc1CCOc1cccc(CN(O)C(N)=O)c1 too.
Response given: rule not met

Challenge: Input Cc1oc(-c2ccc(F)cc2)nc1CCOc1ccc(CN(O)C(N)=O)cc1
Response given: rule not met

Challenge: # repeat for Cc1oc(-c2ccccc2)nc1CCOc1ccc(CN(O)C(N)=O)cc1
Response given: rule not met

Challenge: Cool, now Cc1oc(-c2ccccc2)nc1COc1ccc(CN(O)C(N)=O)cc1
Response given: rule met

----------
Biological target: Polyunsaturated fatty acid 5-lipoxygenase (Rattus norvegicus)
Test: Activity against LTB4 biosynthesis in the rat RPAR pleurisy model po (10 mg/kg)
Type: functional, organism-based
// reported inhibition per item
Value expressed in %; do not type the unit.

Cc1oc(-c2ccc(F)cc2)nc1COc1cccc(CN(O)C(N)=O)c1; 37

Challenge: Looking for the measured inhibition of NC(=O)N(O)Cc1ccc(OCc2coc(-c3ccccc3)n2)cc1 , can you help?
Response given: 60

Challenge: Subsequent entry: Cc1oc(-c2ccccc2)nc1COc1cccc(CN(O)C(N)=O)c1
Response given: 33

Challenge: Entry to check: Cc1oc(-c2ccccc2)nc1COc1ccc(CN(O)C(N)=O)cc1
Response given: 36
